# Test system: MES-SA/Dx5 cells
# Experiment notes: PrestoBlue viability assay, MES-SA/Dx5 cells (MDR, P-gp positive)
# Experimental context: fraction of IC50 in P-gp negative vs positive cells; presence of 1 μM TQ
SR (MES-SA_TQ / Dx5_TQ) (values in parentheses) values by entry
Reported property: SR (MES-SA_TQ / Dx5_TQ) (values in parentheses)

Compound: CN1CCN(Cc2ccc3cccnc3c2O)CC1 [Compound 34]
Observed measurement: 1.10
//
Compound: CCOC(=O)C1CCCN(Cc2cc(Cl)c3cccnc3c2O)C1 (centres unmarked) [Compound 78]
Observed measurement: 1.81
//
Compound: Oc1c(CN2CCN(c3ccc(F)cc3)CC2)cc(Cl)c2cccnc12 [Compound 44]
Observed measurement: 2.70
//
Compound: Oc1c(CN2CCc3ccccc3C2)cc(Cl)c2cccnc12 [Compound 80]
Observed measurement: 1.72
//
Compound: COCc1cc(CN2CCN(C)CC2)c(O)c2ncccc12 [Compound 35]
Observed measurement: 1.10
//
Compound: OCCN(CCO)Cc1cc(Cl)c2cccnc2c1O [Compound 6]
Observed measurement: 1.64
//
Compound: Oc1c(CN2CCc3ccccc3C2)cc(Br)c2cccnc12 [Compound 81]
Observed measurement: 1.66
//
Compound: CC1CCCCN1Cc1cc(Cl)c2cccnc2c1O (centres unmarked) [Compound 77]
Observed measurement: 1.51
